All values here come from the supplement of paper PMC7214452.

System: JeKo-1 (cancer type: Mantle)
Test: normalized area under the dose-response curve (viability relative to DMSO control) (fraction); higher = less sensitive (more viable cells)
Conditions: exposure time not given
Structures can show the parent of a compound that is named as a salt.
Each record here notes measured normalized area under the dose-response curve.
Just the number, please, no unit attached.

Solved cases (6 shown):
>>> experimental_value("CCCS(=O)(=O)Nc1ccc(F)c(C(=O)c2c[nH]c3ncc(-c4ccc(Cl)cc4)cc23)c1F")
0.971
>>> experimental_value("CC(C)(C)c1nc(-c2cccc(NS(=O)(=O)c3c(F)cccc3F)c2F)c(-c2ccnc(N)n2)s1 [Dabrafenib mesylate]")
0.858
>>> experimental_value("C=CC(=O)Nc1cc(Nc2nccc(-c3cn(C)c4ccccc34)n2)c(OC)cc1N(C)CCN(C)C")
0.626
>>> experimental_value("Nc1nc(F)nc2c1ncn2[C@@H]1O[C@H](COP(=O)(O)O)[C@@H](O)[C@@H]1O [Fludarabine phosphate]")
0.912
>>> experimental_value("CC(C)(O)CNc1nc(Nc2ccnc(C(F)(F)F)c2)nc(-c2cccc(C(F)(F)F)n2)n1")
0.881
>>> experimental_value("CNC(=O)c1cc(Oc2ccc(NC(=O)Nc3ccc(Cl)c(C(F)(F)F)c3)c(F)c2)ccn1")
0.879

Any idea what its normalized area under the dose-response curve is? The molecule is Cn1c(CCCC(=O)O)nc2cc(N(CCCl)CCCl)ccc21 [Bendamustine hydrochloride] 0.87

====

Tested on: KMS12PE (cancer type: MM)
Assay: normalized area under the dose-response curve (viability relative to DMSO control) (fraction); higher = less sensitive (more viable cells)
Settings: exposure time not given
Measured normalized area under the dose-response curve values are reported for all entries that follow.
Lab note: write the figure by itself, no unit.

Look over these answered cases.
>>> experimental_value("O=C(c1ccc(OCCN2CCCCC2)cc1)c1c(-c2ccc(O)cc2)sc2cc(O)ccc12 [Raloxifene]")
0.91
>>> experimental_value("Cc1sc2c(c1C)C(c1ccc(Cl)cc1)=N[C@@H](CC(=O)Nc1ccc(O)cc1)c1nnc(C)n1-2 [otx-015]")
0.59
>>> experimental_value("COc1cc2nccc(Oc3ccc(NC(=O)NC4CC4)c(Cl)c3)c2cc1C(N)=O [Lenvatinib]")
0.94

Please look at the following molecule next.
Looking for the measured normalized area under the dose-response curve of Cc1ccc(-n2nc(C(C)(C)C)cc2NC(=O)Nc2ccc(OCCN3CCOCC3)c3ccccc23)cc1 [Doramapimod] , can you help? 0.89

====

Test system: SU-DHL6 (cancer type: DLBCL)
Assay: normalized area under the dose-response curve (viability relative to DMSO control) (fraction); higher = less sensitive (more viable cells)
Details: exposure time not given
The recorded normalized area under the dose-response curve of each item maps onto one of these classes: b0 (below 0.8), b1 (0.8 to below 0.9), b2 (0.9 or more)

# example entries with known answers
>>> answer_label("N#CC[C@H](C1CCCC1)n1cc(-c2ncnc3[nH]ccc23)cn1")
"b2"
>>> answer_label("COc1nc(N)nc2c1ncn2[C@@H]1O[C@H](CO)[C@@H](O)[C@@H]1O")
"b2"
>>> answer_label("Nc1cccc2c1C(=O)N(C1CCC(=O)NC1=O)C2=O (stereo not given) [Pomalidomide]")
"b2"
>>> answer_label("CC(=O)Nc1cccc(-n2c(=O)n(C3CC3)c(=O)c3c(Nc4ccc(I)cc4F)n(C)c(=O)c(C)c32)c1")
"b1"
>>> answer_label("COc1cc2/c(=N/c3ccc(Br)cc3F)nc[nH]c2cc1OCC1CCN(C)CC1")
"b2"
>>> answer_label("COc1cc(Nc2ncc3c(n2)-c2ccc(Cl)cc2C(c2c(F)cccc2OC)=NC3)ccc1C(=O)O")
"b2"

Could you tell me which band CC(C)C[C@H](NC(=O)[C@H](Cc1ccccc1)NC(=O)c1cnccn1)B(O)O belongs to? b0

Class label required: O=C(c1ccc(F)c(F)c1Nc1ccc(I)cc1F)N1CC(O)([C@@H]2CCCCN2)C1 b1

Input Cc1cccc(/C=N/Nc2cc(N3CCOCC3)n3nc(-c4ccncc4)cc3n2)c1 ; output its category b0

Just checking, what class would you give C[C@@H]1CCN(C(=O)CC#N)C[C@@H]1N(C)c1ncnc2[nH]ccc12 here? b2

====

Test system: LP1 (cancer type: MM)
Assay: normalized area under the dose-response curve (viability relative to DMSO control) (fraction); higher = less sensitive (more viable cells)
Details: exposure time not given
Counter-ions that a name gives are not always drawn.
Endpoint: normalized area under the dose-response curve
// no unit, no text: just the number

>>> experimental_value("Nc1ncn([C@@H]2O[C@H](CO)[C@@H](O)[C@H]2O)c(=O)n1")
0.766
>>> experimental_value("CC(C)(O)CNc1nc(Nc2ccnc(C(F)(F)F)c2)nc(-c2cccc(C(F)(F)F)n2)n1")
0.772
>>> experimental_value("COc1nc(N)nc2c1ncn2[C@@H]1O[C@H](CO)[C@@H](O)[C@@H]1O")
0.94
>>> experimental_value("Cc1ccc(Nc2nccc(N(C)c3ccc4c(C)n(C)nc4c3)n2)cc1S(N)(=O)=O [Pazopanib hydrochloride]")
0.602
>>> experimental_value("Cc1noc2c1-c1ccccc1C(c1ccc(Cl)cc1)=N[C@H]2CC(N)=O")
0.687
>>> experimental_value("CC(=O)Nc1cccc(-n2c(=O)n(C3CC3)c(=O)c3c(Nc4ccc(I)cc4F)n(C)c(=O)c(C)c32)c1")
0.64
>>> experimental_value("Cc1ccc(-n2nc(C(C)(C)C)cc2NC(=O)Nc2ccc(OCCN3CCOCC3)c3ccccc23)cc1")
0.87
>>> experimental_value("Cc1cccc(/C=N/Nc2cc(N3CCOCC3)n3nc(-c4ccncc4)cc3n2)c1")
0.81

Consider the additional molecule presented here.
Suppose we examine the molecule C=CC(=O)Nc1cc(Nc2nccc(-c3cn(C)c4ccccc34)n2)c(OC)cc1N(C)CCN(C)C ; what normalized area under the dose-response curve value has been reported? 0.406

====

Attribute: normalized area under the dose-response curve
System: HuT 78 (cancer type: TCL)
Test: normalized area under the dose-response curve (viability relative to DMSO control) (fraction); higher = less sensitive (more viable cells)
Settings: exposure time not given
Counter-ions that a name gives are not always drawn.

>>> experimental_value("C=CC(=O)Nc1cc(Nc2nccc(-c3cn(C)c4ccccc34)n2)c(OC)cc1N(C)CCN(C)C [Osimertinib]")
0.473
>>> experimental_value("O=C(/C=C/c1cccc(S(=O)(=O)Nc2ccccc2)c1)NO [Belinostat]")
0.178
>>> experimental_value("C#Cc1cccc(Nc2ncnc3cc(OCCOC)c(OCCOC)cc23)c1 [Erlotinib hydrochloride]")
0.756
>>> experimental_value("Cc1ccc(Nc2nccc(N(C)c3ccc4c(C)n(C)nc4c3)n2)cc1S(N)(=O)=O [Pazopanib hydrochloride]")
0.795
>>> experimental_value("COc1cc2/c(=N/c3ccc(Br)cc3F)nc[nH]c2cc1OCC1CCN(C)CC1 [Vandetanib]")
0.892

Reported normalized area under the dose-response curve, molecule COc1cc(Nc2ncc3c(n2)-c2ccc(Cl)cc2C(c2c(F)cccc2OC)=NC3)ccc1C(=O)O [Alisertib] : ____ 0.826

Which value of normalized area under the dose-response curve has been reported for Cc1cc(Nc2ncc(Cl)c(Nc3ccccc3S(=O)(=O)C(C)C)n2)c(OC(C)C)cc1C1CCNCC1 [Ceritinib] in the records? 0.534

Please report the recorded normalized area under the dose-response curve for COc1nc(N)nc2c1ncn2[C@@H]1O[C@H](CO)[C@@H](O)[C@@H]1O [Nelarabine] . 0.913

====

System: XG2 (cancer type: MM)
Assay: normalized area under the dose-response curve (viability relative to DMSO control) (fraction); higher = less sensitive (more viable cells)
Conditions: exposure time not given
Endpoint: normalized area under the dose-response curve
Form: value (number only, do not type unit).

Solved cases (3 shown):
>>> experimental_value("CC(=O)Nc1cccc(-n2c(=O)n(C3CC3)c(=O)c3c(Nc4ccc(I)cc4F)n(C)c(=O)c(C)c32)c1 [Trametinib]")
0.727
>>> experimental_value("O=C(c1ccc(F)c(F)c1Nc1ccc(I)cc1F)N1CC(O)([C@@H]2CCCCN2)C1 [Cobimetinib]")
0.501
>>> experimental_value("O=C(/C=C\\n1cnc(-c2cc(C(F)(F)F)cc(C(F)(F)F)c2)n1)NNc1cnccn1 [Selinexor]")
0.256

Now, please, on to the next compound.
Which value of normalized area under the dose-response curve has been reported for Cc1nc(Nc2ncc(C(=O)Nc3c(C)cccc3Cl)s2)cc(N2CCN(CCO)CC2)n1 [Dasatinib] in the records? 0.746

====

Test system: KMS34 (cancer type: MM)
Assay: normalized area under the dose-response curve (viability relative to DMSO control) (fraction); higher = less sensitive (more viable cells)
Conditions: exposure time not given
// reported normalized area under the dose-response curve per item
// print number alone

# count of solved cases: 5
>>> experimental_value("CN(C)C/C=C/C(=O)Nc1cc2c(Nc3ccc(F)c(Cl)c3)ncnc2cc1O[C@H]1CCOC1 [Afatinib]")
0.461
>>> experimental_value("Cc1ccc(C(=O)Nc2ccc(CN3CCN(C)CC3)c(C(F)(F)F)c2)cc1C#Cc1cnc2cccnn12 [Ponatinib]")
0.298
>>> experimental_value("CC(C)(O)CNc1nc(Nc2ccnc(C(F)(F)F)c2)nc(-c2cccc(C(F)(F)F)n2)n1 [Enasidenib (Agios ag-221)]")
0.853
>>> experimental_value("C[C@@H]1C[C@H]2[C@@H]3CCC4=CC(=O)C=C[C@]4(C)[C@@]3(F)[C@@H](O)C[C@]2(C)[C@@]1(O)C(=O)CO [Dexamethasone]")
0.487
>>> experimental_value("Cc1ccc(NC(=O)c2ccc(CN3CCN(C)CC3)cc2)cc1Nc1nccc(-c2cccnc2)n1 [Imatinib]")
0.562

Lab note: need normalized area under the dose-response curve for O=P1(N(CCCl)CCCl)NCCCO1 (stereo not given) [Cyclophosphamide] on KMS34 (cancer type: MM), anyone have it? 0.791
